measuredTarget: HIV-1 RT enzyme (wild type) (Human immunodeficiency virus type 1 group M subtype B, UniProt P04585)
Construct: The reverse transcriptase (RT) enzyme assay has been adapted to a 96-well microtiter plate format
methodSummary: Reverse transcriptase (RT) enzymatic assay (IC50), PicoGreen fluorescence, wild type
Type: biochemical
Kindly state IC50 for each of the entries shown.

> print(dat)
                                   molecule  experimentalresult
1  O=C(CSc1nnnn1-c1ccc2ccccc2c1)Nc1ccccc1[N+](=O)[O-] [Entry 103]           < 0.05 µM
2  O=C(CSc1nnnn1-c1cccc2c1CCCC2)Nc1ccccc1[N+](=O)[O-] [Entry 104]           < 0.05 µM
3  Cc1ccc(-n2nnnc2SCC(=O)Nc2ccccc2[N+](=O)[O-])c(C)c1 [Entry 125]           < 0.05 µM
4  N#Cc1ccc(NC(=O)CSc2nnnn2-c2cccc3ccccc23)c(Cl)c1 [Entry 239]      0.05 to 0.1 µM
5  CN(C)c1ccc(-n2nnnc2SCC(=O)Nc2ccccc2[N+](=O)[O-])c2ccccc12 [Entry 102]           < 0.05 µM

Report IC50 for each item below.
1. CC(Sc1nnnn1-c1cccc2ccccc12)C(=O)Nc1ccccc1[N+](=O)[O-] (centres unmarked) [Entry 301]
2. O=C(CSc1nnnn1-c1cccc2ccccc12)Nc1ccc(C(=O)O)cc1Cl [Entry 236]
3. O=C(CSc1nnnn1-c1ccccc1C(F)(F)F)Nc1ccccc1[N+](=O)[O-] [Entry 111]

## Result
["0.05 to 0.1 µM", "0.05 to 0.1 µM", "0.05 to 0.1 µM"]
